Hey, just so you know, these numbers are from patent US20110230476A1.

# Measured target: PI3Kα (p110α/p85α) (Homo sapiens)
# Test summary: HTRF assay, potency against active PI3Kα
# Condition notes: HTRF; [ATP]=50 μM, [di-C8-PIP2]=10 μM; 30 min pre-incubation; read-out: PI3Kα Inhibition
pIC50: −log10 of the molar value.
Listing: pIC50 of selected compounds

Worked examples follow.
[[record]]
structure_string = "C=CC(=O)Nc1ccc(COCc2cc3nc(-c4cnc(N)nc4)nc(N4CCOCC4)c3s2)cc1"
measured_target = "PI3Kα (p110α/p85α) (Homo sapiens)"
measured_value = "6.00 to 7.00"

[[record]]
structure_string = "CCCC(=O)CCC(=O)N1CCC(n2nc(-c3ccc(OC)c(OC)c3)c3c(N)ncnc32)CC1"
measured_target = "PI3Kα (p110α/p85α) (Homo sapiens)"
measured_value = "< 6.00"

[[record]]
structure_string = "C/C=C/C(=O)CCC(=O)N1CCC(C#Cc2cc3nc(-c4cccc(O)c4)nc(N4CCOCC4)c3s2)CC1"
measured_target = "PI3Kα (p110α/p85α) (Homo sapiens)"
measured_value = "> 8.00"


stdin: // returns reported pIC50 for input "C/C=C/C(=O)CCC(=O)NCc1ccc(-c2cc3nc(-c4cccc5[nH]ncc45)nc(N4CCOCC4)c3s2)cc1"
stdout: 7.00 to 8.00

stdin: // returns reported pIC50 for input "C=CC(=O)Nc1ccc(C(=O)N2CCN(c3cc(-c4cnc(N)nc4)nc(N4CCOCC4)c3)CC2)cc1"
stdout: 6.00 to 7.00

stdin: // returns reported pIC50 for input "CC(C)=CC(=O)C(=O)N1CCN(c2ccc(-c3cc(-c4cnc(N)nc4)nc(N4CCOCC4)c3)cc2)CC1"
stdout: 7.00 to 8.00

stdin: // returns reported pIC50 for input "C=CC(=O)N[C@H]1CC[C@H](C(=O)N2CCN(Cc3cc4nc(-c5cccc6[nH]ncc56)nc(N5CCOCC5)c4s3)CC2)CC1"
stdout: 6.00 to 7.00

stdin: // returns reported pIC50 for input "C=CS(=O)(=O)N1CCN(Cc2cc3nc(-c4cccc5[nH]ncc45)nc(N4CCOCC4)c3s2)CC1"
stdout: 6.00 to 7.00

stdin: // returns reported pIC50 for input "C=CC(=O)N1CCC(O)(CCc2cc3nc(-c4cccc(O)c4)nc(N4CCOCC4)c3s2)CC1"
stdout: 7.00 to 8.00

* * *

Listing: pIC50 of selected compounds
# Measured target: PI3Kα (p110α/p85α) (Homo sapiens, UniProt P42336)
# Sequence (P42336 whole entry): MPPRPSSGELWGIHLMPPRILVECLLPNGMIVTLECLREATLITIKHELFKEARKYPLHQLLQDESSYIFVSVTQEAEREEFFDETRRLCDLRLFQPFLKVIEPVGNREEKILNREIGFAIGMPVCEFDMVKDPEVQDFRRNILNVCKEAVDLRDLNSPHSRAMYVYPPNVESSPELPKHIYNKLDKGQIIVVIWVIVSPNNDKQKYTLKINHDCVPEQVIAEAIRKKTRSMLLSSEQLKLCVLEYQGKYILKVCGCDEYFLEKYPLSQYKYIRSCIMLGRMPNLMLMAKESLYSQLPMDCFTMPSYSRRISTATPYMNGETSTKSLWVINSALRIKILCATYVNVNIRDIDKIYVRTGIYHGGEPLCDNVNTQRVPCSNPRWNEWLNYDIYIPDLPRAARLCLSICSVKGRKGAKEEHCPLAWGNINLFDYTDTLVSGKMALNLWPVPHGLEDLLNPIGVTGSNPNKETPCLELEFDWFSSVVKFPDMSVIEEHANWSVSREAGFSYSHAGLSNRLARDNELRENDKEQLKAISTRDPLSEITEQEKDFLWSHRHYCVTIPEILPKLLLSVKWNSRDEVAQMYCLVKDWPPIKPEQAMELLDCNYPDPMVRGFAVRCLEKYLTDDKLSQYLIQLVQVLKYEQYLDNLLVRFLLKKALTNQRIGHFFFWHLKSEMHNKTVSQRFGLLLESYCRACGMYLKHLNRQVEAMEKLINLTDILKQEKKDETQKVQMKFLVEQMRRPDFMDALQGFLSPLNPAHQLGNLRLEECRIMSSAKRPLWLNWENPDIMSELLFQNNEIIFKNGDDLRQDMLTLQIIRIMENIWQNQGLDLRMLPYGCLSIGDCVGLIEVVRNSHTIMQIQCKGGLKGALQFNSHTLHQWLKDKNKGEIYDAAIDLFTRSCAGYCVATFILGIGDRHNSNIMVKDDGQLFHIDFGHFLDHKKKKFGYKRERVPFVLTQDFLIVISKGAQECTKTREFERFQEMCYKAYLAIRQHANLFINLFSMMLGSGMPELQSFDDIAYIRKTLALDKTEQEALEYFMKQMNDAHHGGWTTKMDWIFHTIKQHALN
# Sequence (P27986 whole entry partner): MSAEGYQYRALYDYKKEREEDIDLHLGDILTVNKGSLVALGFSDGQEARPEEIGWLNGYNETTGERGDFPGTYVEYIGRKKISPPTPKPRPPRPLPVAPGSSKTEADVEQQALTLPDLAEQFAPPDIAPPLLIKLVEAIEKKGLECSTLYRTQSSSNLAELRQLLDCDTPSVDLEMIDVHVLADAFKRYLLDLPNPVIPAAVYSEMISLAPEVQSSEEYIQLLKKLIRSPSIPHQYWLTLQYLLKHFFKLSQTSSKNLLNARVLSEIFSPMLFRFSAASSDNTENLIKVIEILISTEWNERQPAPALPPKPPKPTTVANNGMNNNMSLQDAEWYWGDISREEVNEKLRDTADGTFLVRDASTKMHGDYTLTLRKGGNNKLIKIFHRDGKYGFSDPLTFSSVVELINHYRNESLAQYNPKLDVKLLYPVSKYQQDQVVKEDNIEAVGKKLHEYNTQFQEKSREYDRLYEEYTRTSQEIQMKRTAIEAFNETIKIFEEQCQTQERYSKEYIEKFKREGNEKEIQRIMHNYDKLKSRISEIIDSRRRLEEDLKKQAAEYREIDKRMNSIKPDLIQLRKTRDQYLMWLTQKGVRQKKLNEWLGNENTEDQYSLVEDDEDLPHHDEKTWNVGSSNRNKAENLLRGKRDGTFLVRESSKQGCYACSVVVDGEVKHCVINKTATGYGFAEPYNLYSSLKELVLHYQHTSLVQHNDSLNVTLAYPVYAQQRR
# Test summary: HTRF assay, potency against active PI3Kα
# Condition notes: HTRF; [ATP]=50 μM, [di-C8-PIP2]=10 μM; 30 min pre-incubation; read-out: PI3Kα Inhibition
pIC50: −log10 of the molar value.

stdin: // returns reported pIC50 for input "C=CC(=O)NCc1cccc(-c2cc3nc(-c4cccc(O)c4)nc(N4CCOCC4)c3s2)c1"
stdout: > 8.00

stdin: // returns reported pIC50 for input "C=CC(=O)N1CCC(N2CCN(C(=O)c3cc4nc(-c5cccc(O)c5)nc(N5CCOCC5)c4s3)CC2)CC1"
stdout: 6.00 to 7.00

stdin: // returns reported pIC50 for input "CCCC(=O)CCC(=O)N1CCN(Cc2cc3nc(-c4cccc5[nH]ncc45)nc(N4CCOCC4)c3s2)CC1"
stdout: < 6.00

stdin: // returns reported pIC50 for input "C/C=C/C(=O)CCC(=O)N1CCC(O)(CCc2cc3nc(-c4cccc(O)c4)nc(N4CCOCC4)c3s2)CC1"
stdout: > 8.00

* * *

# Measured target: PI3Kα (p110α/p85α) (Homo sapiens, UniProt P42336)
# Test summary: HTRF assay, potency against active PI3Kα
# Condition notes: HTRF; [ATP]=50 μM, [di-C8-PIP2]=10 μM; 30 min pre-incubation; read-out: PI3Kα Inhibition
# Description: Homogeneous Time Resolved Fluorescence (HTRF) Assay Protocol for Potency Assessment Against the Active Forms of PI3Kα, PI3Kβ, and PI3Kγ The mechanics of the assay platform are best described by the vendor (Millipore, Billerica, Mass.) on their website at the following URL: www.millipore.com/coa/tech1/74jt4z. […]
pIC50: −log10 of the molar value.
Listing: pIC50 of selected molecules

[[record]]
molecule = "O=C(/C=C/c1ccccc1F)CCC(=O)N1CCN(Cc2cc3nc(-c4cccc5[nH]ncc45)nc(N4CCOCC4)c3s2)CC1 [II-a-140]"
measured_target = "PI3Kα (p110α/p85α) (Homo sapiens, UniProt P42336)"
readout = "pIC50"
measured_value = "7.00 to 8.00"

[[record]]
molecule = "C/C=C/C(=O)CCCC(=O)N1CCN(c2ccc(-c3ccnc4ccc(/C=C5\\SC(=O)NC5=O)cc34)cc2)CC1 [V-16]"
measured_target = "PI3Kα (p110α/p85α) (Homo sapiens, UniProt P42336)"
readout = "pIC50"
measured_value = "> 8.00"

[[record]]
molecule = "C=CC(=O)N(C)Cc1cc2nc(-c3cccc(O)c3)nc(N3CCOCC3)c2s1 [II-a-39]"
measured_target = "PI3Kα (p110α/p85α) (Homo sapiens, UniProt P42336)"
readout = "pIC50"
measured_value = "7.00 to 8.00"

[[record]]
molecule = "C=CC(=O)Nc1ccc(CCNC(=O)c2cc3nc(-c4cnc(N)nc4)cc(N4CCOCC4)c3s2)cc1 [II-g-1]"
measured_target = "PI3Kα (p110α/p85α) (Homo sapiens, UniProt P42336)"
readout = "pIC50"
measured_value = "6.00 to 7.00"

[[record]]
molecule = "C=CC(=O)Nc1cccc(N2CC=C(c3cc(-c4cnc(N)nc4)nc(N4CCOCC4)c3)CC2)c1 [XII-48]"
measured_target = "PI3Kα (p110α/p85α) (Homo sapiens, UniProt P42336)"
readout = "pIC50"
measured_value = "6.00 to 7.00"


stdin: State its pIC50 on PI3Kα (p110α/p85α) (Homo sapiens, UniProt P42336): CCC(=O)NCc1cccc(-c2cc3nc(-c4cccc(O)c4)nc(N4CCOCC4)c3s2)c1 [II^R-a-64]
stdout: 6.00 to 7.00

stdin: State its pIC50 on PI3Kα (p110α/p85α) (Homo sapiens, UniProt P42336): C/C=C/C(=O)CCC(=O)N(C)Cc1cc2nc(-c3cccc(O)c3)nc(N3CCOCC3)c2s1 [II-a-40]
stdout: 7.00 to 8.00

stdin: State its pIC50 on PI3Kα (p110α/p85α) (Homo sapiens, UniProt P42336): C=CC(=O)N1Cc2ccc(-c3cc4nc(-c5cccc(O)c5)nc(N5CCOCC5)c4s3)cc2C1 [II-a-27]
stdout: 6.00 to 7.00

* * *

# Measured target: PI3Kα (p110α/p85α) (Homo sapiens, UniProt P42336)
# Test summary: HTRF assay, potency against active PI3Kα
# Condition notes: HTRF; [ATP]=50 μM, [di-C8-PIP2]=10 μM; 30 min pre-incubation; read-out: PI3Kα Inhibition
Readout: IC50

Worked examples follow.
[[record]]
structure_string = "C/C=C/C(=O)CCC(=O)NCc1ccc(OC)c(-n2c(CSc3ncnc4[nH]cnc34)nc3cccc(Cl)c3c2=O)c1"
measured_target = "PI3Kα (p110α/p85α) (Homo sapiens, UniProt P42336)"
measured_value = "> 1000 nM"

[[record]]
structure_string = "C/C(=C\\c1ccccn1)C(=O)CCC(=O)N1CCN(Cc2cc3nc(-c4cccc5[nH]ncc45)nc(N4CCOCC4)c3s2)CC1"
measured_target = "PI3Kα (p110α/p85α) (Homo sapiens, UniProt P42336)"
measured_value = "100 to 1000 nM"

[[record]]
structure_string = "C=CC(=O)NCC(=O)N1CCC(O)(c2cc3nc(-c4cccc5[nH]ncc45)nc(N4CCOCC4)c3s2)CC1"
measured_target = "PI3Kα (p110α/p85α) (Homo sapiens, UniProt P42336)"
measured_value = "100 to 1000 nM"


Note: attention shifts to another entry.
stdin: // returns reported IC50 for input "C=CC(=O)N(C)CC(=O)N1CCC(n2nc(-c3cc4cc(O)ccc4[nH]3)c3c(N)ncnc32)CC1"
stdout: > 1000 nM

* * *

# Measured target: PI3Kα (p110α/p85α) (Homo sapiens, UniProt P42336)
# Test summary: HTRF assay, potency against active PI3Kα
# Condition notes: HTRF; [ATP]=50 μM, [di-C8-PIP2]=10 μM; 30 min pre-incubation; read-out: PI3Kα Inhibition
pIC50: −log10 of the molar value.
Listing: pIC50 of selected molecules

[[record]]
molecule = "C=CC(=O)n1cc(-c2ccc3c(c2)N(c2nc4c(s2)C(=O)NC(C)(C)C4)CCO3)cn1 [VI-1]"
measured_target = "PI3Kα (p110α/p85α) (Homo sapiens, UniProt P42336)"
readout = "pIC50"
measured_value = "< 6.00"

[[record]]
molecule = "CC(C)=CC(=O)CCC(=O)NCc1ccc(-c2cc3nc(-c4cccc(O)c4)nc(N4CCOCC4)c3s2)cc1 [II-a-122]"
measured_target = "PI3Kα (p110α/p85α) (Homo sapiens, UniProt P42336)"
readout = "pIC50"
measured_value = "7.00 to 8.00"

[[record]]
molecule = "CC(C)=CC(=O)c1ccc(CCNC(=O)c2cc(-c3cnc(N)cc3C(F)(F)F)nc(N3CCOCC3)c2)cc1 [XII-9]"
measured_target = "PI3Kα (p110α/p85α) (Homo sapiens, UniProt P42336)"
readout = "pIC50"
measured_value = "< 6.00"

[[record]]
molecule = "CC(C)=CC(=O)CCC(=O)N1CCC(C#Cc2cc(-c3cnc(N)nc3)nc(N3CCOCC3)c2)CC1 [XII-31]"
measured_target = "PI3Kα (p110α/p85α) (Homo sapiens, UniProt P42336)"
readout = "pIC50"
measured_value = "6.00 to 7.00"


stdin: // returns reported pIC50 for input C=CC(=O)N1CCN(c2ccc(-c3cc(-c4cnc(N)nc4)nc(N4CCOCC4)c3)cn2)CC1 [XII-28]
stdout: 6.00 to 7.00

stdin: // returns reported pIC50 for input CC(C)=CC(=O)C1(C(=O)N2CCC3(CC2)CCN(c2cc(-c4cnc(N)nc4)nc(N4CCOCC4)c2)CC3)CC1 [XII-36]
stdout: 6.00 to 7.00

stdin: // returns reported pIC50 for input O=C(C=C1COC1)CCC(=O)N1CCN(Cc2cc3nc(-c4cccc5[nH]ncc45)nc(N4CCOCC4)c3s2)CC1 [II-a-113]
stdout: < 6.00
